- Assay Explanation: Pharmacokinetic study in rats after oral administration of SYD extract and its single and combined TCM extracts (UPLC-MS/MS of plasma)
- Condition Label: male, Sprague-Dawley, rat, plasma, po, 2.15 g/kg, AUC(0–∞), rat plasma, oral LJ extract 2.15 g/kg, n = 6
Quantity Kind: AUC(0-inf)
Param answer (str): number followed by unit.

The reported AUC(0-inf) of the compound COC(=O)C1=CO[C@@H](O[C@@H]2O[C@H](CO)[C@@H](O)[C@H](O)[C@H]2O)[C@@H]2[C@@H](C)[C@@H](O)C[C@H]12 was 1670 ng·h/mL

The reported AUC(0-inf) of the compound O=C(/C=C/c1ccc(O)c(O)c1)O[C@@H]1C[C@](O)(C(=O)O)C[C@@H](O)[C@H]1O was 5040 ng·h/mL

----------
- Assay Explanation: in vivo
- Condition Label: male, Sprague-Dawley, rat, po, 8.25 g/kg, AUC(0–t)
Quantity Kind: AUC(0-t) (ng·h/mL)
Record the value in ng·h/mL, omitting the unit from your answer.

The reported AUC(0-t) of the molecule C=C[C@H]1[C@H](O[C@@H]2O[C@H](CO)[C@@H](O)[C@H](O)[C@H]2O)OC=C2C(=O)OCC[C@H]21 [Sweroside, sweroside] was 4490

----------
- Assay Explanation: Pharmacokinetic study in rats after oral administration of SYD extract and its single and combined TCM extracts (UPLC-MS/MS of plasma)
- Condition Label: male, Sprague-Dawley, rat, plasma, po, 4.73 g/kg, AUC(0–∞), rat plasma, oral LJ + SN + GU extract 4.73 g/kg, n = 6
Please go through the items and note down their AUC(0-inf).
Record the value in ng·h/mL, omitting the unit from your answer.

The reported AUC(0-inf) of the molecule COc1ccc(CCO[C@@H]2O[C@H](CO[C@@H]3OC[C@H](O)[C@H](O)[C@H]3O)[C@@H](OC(=O)/C=C/c3ccc(O)c(OC)c3)[C@H](O[C@@H]3O[C@@H](C)[C@H](O)[C@@H](O)[C@H]3O)[C@H]2O)cc1O [Angoroside C, angoroside C] was 230

The reported AUC(0-inf) of the molecule O=C(/C=C/c1ccc(O)c(O)c1)O[C@@H]1C[C@](O)(C(=O)O)C[C@@H](O)[C@H]1O was 3410

The reported AUC(0-inf) of the molecule C[C@]1(OC(=O)/C=C/c2ccccc2)C[C@@H](O)[C@]2(O)C=CO[C@@H](O[C@@H]3O[C@H](CO)[C@@H](O)[C@H](O)[C@H]3O)[C@@H]21 [Harpagoside, harpagoside] was 190

The reported AUC(0-inf) of the molecule COC(=O)C1=CO[C@@H](O[C@@H]2O[C@H](CO)[C@@H](O)[C@H](O)[C@H]2O)[C@@H]2[C@@H](C)[C@@H](O)C[C@H]12 was 5510

The reported AUC(0-inf) of the molecule O=C1C[C@@H](c2ccc(O[C@@H]3O[C@H](CO)[C@@H](O)[C@H](O)[C@H]3O)cc2)Oc2cc(O)ccc21 was 260

----------
- Assay Explanation: Pharmacokinetic study in rats after oral administration of SYD extract and its single and combined TCM extracts (UPLC-MS/MS of plasma)
- Condition Label: male, Sprague-Dawley, rat, plasma, po, 3.38 g·kg^−1 extract, Cmax, rat plasma, oral SN + GU extract, n = 6
Please go through the items and note down their Cmax.
Record the value in ng/mL, omitting the unit from your answer.

The reported Cmax of the compound COc1ccc(CCO[C@@H]2O[C@H](CO[C@@H]3OC[C@H](O)[C@H](O)[C@H]3O)[C@@H](OC(=O)/C=C/c3ccc(O)c(OC)c3)[C@H](O[C@@H]3O[C@@H](C)[C@H](O)[C@@H](O)[C@H]3O)[C@H]2O)cc1O [Angoroside C, angoroside C] was 330

The reported Cmax of the compound O=C1C[C@@H](c2ccc(O[C@@H]3O[C@H](CO)[C@@H](O)[C@H](O)[C@H]3O)cc2)Oc2cc(O)ccc21 was 150

The reported Cmax of the compound C[C@]1(OC(=O)/C=C/c2ccccc2)C[C@@H](O)[C@]2(O)C=CO[C@@H](O[C@@H]3O[C@H](CO)[C@@H](O)[C@H](O)[C@H]3O)[C@@H]21 [Harpagoside, harpagoside] was 50
